Test system: TNF-α
Assay: Inhibition of TNF-α production following LPS-stimulation of human PBMC
Assay type: cell-based
Details: LPS-stimulated, read-out: IC50 for inhibiting production of TNF-α following LPS-stimulation of PBMC
readout name: IC50

Name the recorded IC50 of Nc1cccc2c1CN(C1CCC(=O)NC1=O)C2=O (stereo not shown) , assay system TNF-α.
~100 nM
